- TGT: soybean 15-LOX (Glycine max)
- PROCEDURE TEXT: In vitro 15-lipoxygenase inhibition assay
- Type: biochemical
- EXPERIMENTAL SETUP: read-out: IC50 (µM) ± SEM 15-LOX
IC50 values for the compounds below.
MEASURED PROPERTY: IC50

line_notation=Clc1ccc(Nc2nnc(Cc3ccccc3Nc3c(Cl)cccc3Cl)s2)c(Cl)c1 measured_property=IC50 reported_result="> 250 µM"
line_notation=Fc1ccc(-n2c(S)nnc2Cc2ccccc2Nc2c(Cl)cccc2Cl)cc1 measured_property=IC50 reported_result="> 250 µM"
line_notation=CCSc1nnc(Cc2ccccc2Nc2c(Cl)cccc2Cl)n1-c1ccc(F)cc1 measured_property=IC50 reported_result="> 250 µM"

---

- TGT: soybean 15-LOX (Glycine max, UniProt P08170)
- Sequence (P08170 1-839): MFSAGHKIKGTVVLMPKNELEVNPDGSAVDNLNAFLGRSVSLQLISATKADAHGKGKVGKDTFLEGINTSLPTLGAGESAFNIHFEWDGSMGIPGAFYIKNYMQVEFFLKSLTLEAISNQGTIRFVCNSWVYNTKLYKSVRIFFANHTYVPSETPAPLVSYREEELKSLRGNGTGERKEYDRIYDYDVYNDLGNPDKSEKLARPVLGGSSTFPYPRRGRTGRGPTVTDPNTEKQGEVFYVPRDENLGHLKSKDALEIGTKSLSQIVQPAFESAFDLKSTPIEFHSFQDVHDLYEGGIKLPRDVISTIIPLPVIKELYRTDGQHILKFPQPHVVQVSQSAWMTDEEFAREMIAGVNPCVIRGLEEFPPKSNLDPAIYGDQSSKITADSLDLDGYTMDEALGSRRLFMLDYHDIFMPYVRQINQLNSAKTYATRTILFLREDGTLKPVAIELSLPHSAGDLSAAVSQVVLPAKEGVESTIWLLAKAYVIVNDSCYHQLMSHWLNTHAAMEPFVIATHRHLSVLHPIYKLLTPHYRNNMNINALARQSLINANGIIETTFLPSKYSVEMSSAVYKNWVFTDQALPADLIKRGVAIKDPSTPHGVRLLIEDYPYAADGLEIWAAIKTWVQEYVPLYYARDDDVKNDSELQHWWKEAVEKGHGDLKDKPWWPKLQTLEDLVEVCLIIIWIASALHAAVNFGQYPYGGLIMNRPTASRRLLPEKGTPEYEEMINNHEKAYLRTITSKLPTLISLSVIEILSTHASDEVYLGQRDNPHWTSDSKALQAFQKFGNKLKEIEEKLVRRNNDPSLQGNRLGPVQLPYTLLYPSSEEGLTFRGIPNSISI
- PROCEDURE TEXT: In vitro 15-lipoxygenase inhibition assay
- Format: biochemical
- EXPERIMENTAL SETUP: read-out: IC50 (µM) ± SEM 15-LOX
MEASURED PROPERTY: IC50 (µM)

compound="Fc1ccccc1Nc1nnc(Cc2ccccc2Nc2c(Cl)cccc2Cl)s1 [8a]" units_symbol=µM cmp=> reported_result=250
compound="CCSc1nnc(Cc2ccccc2Nc2c(Cl)cccc2Cl)n1-c1ccc(Cl)c(Cl)c1 [6b]" units_symbol=µM cmp=> reported_result=250
compound="Fc1ccc(Nc2nnc(Cc3ccccc3Nc3c(Cl)cccc3Cl)o2)cc1 [7c]" units_symbol=µM cmp== reported_result=67
compound="CCCSc1nnc(Cc2ccccc2Nc2c(Cl)cccc2Cl)n1-c1ccc(F)cc1 [6c]" units_symbol=µM cmp=> reported_result=250
compound="Clc1cccc(Nc2nnc(Cc3ccccc3Nc3c(Cl)cccc3Cl)o2)c1Cl [7d]" units_symbol=µM cmp== reported_result=165
compound="Clc1cccc(Nc2nnc(Cc3ccccc3Nc3c(Cl)cccc3Cl)s2)c1Cl [8d]" units_symbol=µM cmp== reported_result=132
compound="Clc1ccc(Nc2nnc(Cc3ccccc3Nc3c(Cl)cccc3Cl)o2)cc1Cl [7f]" units_symbol=µM cmp== reported_result=143
compound="Sc1nnc(Cc2ccccc2Nc2c(Cl)cccc2Cl)n1-c1ccc(Cl)cc1Cl [5e]" units_symbol=µM cmp== reported_result=93
compound="O=C(Cc1ccccc1Nc1c(Cl)cccc1Cl)NNC(=S)Nc1ccc(Cl)c(Cl)c1 [4f]" units_symbol=µM cmp=> reported_result=250
compound="CCCSc1nnc(Cc2ccccc2Nc2c(Cl)cccc2Cl)n1-c1ccc(Cl)c(Cl)c1 [6d]" units_symbol=µM cmp=> reported_result=250
compound="O=C(Cc1ccccc1Nc1c(Cl)cccc1Cl)NNC(=S)Nc1cccc(Cl)c1Cl [4d]" units_symbol=µM cmp== reported_result=164
compound="O=C(Cc1ccccc1Nc1c(Cl)cccc1Cl)NNC(=S)Nc1cccc(F)c1 [4b]" units_symbol=µM cmp=> reported_result=250
compound="O=C(Cc1ccccc1Nc1c(Cl)cccc1Cl)NNC(=S)Nc1ccc(F)cc1 [4c]" units_symbol=µM cmp=> reported_result=250

---

- TGT: UniProt:P53341
- Sequence (P53341 whole entry): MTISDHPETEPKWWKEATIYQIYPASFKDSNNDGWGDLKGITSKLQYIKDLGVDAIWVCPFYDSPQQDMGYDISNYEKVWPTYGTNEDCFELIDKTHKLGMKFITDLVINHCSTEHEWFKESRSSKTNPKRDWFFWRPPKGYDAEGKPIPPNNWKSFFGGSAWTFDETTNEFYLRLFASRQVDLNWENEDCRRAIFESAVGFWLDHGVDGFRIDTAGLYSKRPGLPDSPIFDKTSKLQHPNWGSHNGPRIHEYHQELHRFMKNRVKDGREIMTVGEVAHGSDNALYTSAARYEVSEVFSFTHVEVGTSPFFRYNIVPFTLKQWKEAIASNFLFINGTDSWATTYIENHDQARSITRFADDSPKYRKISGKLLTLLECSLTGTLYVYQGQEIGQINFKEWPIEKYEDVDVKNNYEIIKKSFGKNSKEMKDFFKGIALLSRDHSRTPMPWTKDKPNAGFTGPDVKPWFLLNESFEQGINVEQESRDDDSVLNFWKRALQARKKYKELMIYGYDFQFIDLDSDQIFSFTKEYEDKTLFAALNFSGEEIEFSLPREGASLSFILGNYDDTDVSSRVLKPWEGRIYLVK
- PROCEDURE TEXT: In vitro α-glucosidase inhibition assay
- Format: biochemical
- EXPERIMENTAL SETUP: NA = not active, read-out: IC50 (µM) ± SEM α-glucosidase
- Source text: Assay protocols for bioactivity were placed in electronic supplementary material. Synthesized diclofenac acid derivatives were screened for α-glucosidase inhibitory activity (table 2).
MEASURED PROPERTY: IC50 (µM)

line_notation=Sc1nnc(Cc2ccccc2Nc2c(Cl)cccc2Cl)n1-c1cccc(Cl)c1Cl measured_property=IC50 units_symbol=µM reported_result=83
line_notation=Clc1cccc(Nc2nnc(Cc3ccccc3Nc3c(Cl)cccc3Cl)o2)c1Cl measured_property=IC50 units_symbol=µM reported_result=79
line_notation=O=C(Cc1ccccc1Nc1c(Cl)cccc1Cl)NNC(=S)Nc1ccc(F)cc1 measured_property=IC50 units_symbol=µM reported_result=53
